tested on: rodent lifetime carcinogenesis bioassay, tumor incidence TD50; experiment: carcinogenic potency in animals, long-term in vivo studies, CPDB compilation (AID 1745844); settings: mouse; strain CF-1; females; in feed; site: liver; lesion: liver-cell tumor; dosed 110 weeks; study length 110 weeks
TEST_READOUT: TD50

1) ClC1=C(Cl)[C@]2(Cl)[C@@H]3[C@@H]4C[C@@H]([C@H]5O[C@@H]45)[C@@H]3[C@@]1(Cl)C2(Cl)Cl
1.59 mg/kg/day

###

system: rodent lifetime carcinogenesis bioassay, tumor incidence TD50; assay: carcinogenic potency in animals, long-term in vivo studies, CPDB compilation (AID 1745844); details: rat; strain Fischer 344; males; in feed; site: liver; lesion: hepatocholangiocarcinoma; dosed 103 weeks; study length 104 weeks
TEST_READOUT: TD50

1. Nc1c(Br)cc(Br)c2c1C(=O)c1ccccc1C2=O
1230 mg/kg/day

###

system: rodent lifetime carcinogenesis bioassay, tumor incidence TD50; assay: carcinogenic potency in animals, long-term in vivo studies, CPDB compilation (AID 1745844); details: rat; strain Fischer 344; males; in feed; site: kidney; lesion: transitional-cell papilloma; dosed 27 weeks; study length 104 weeks
TEST_READOUT: TD50

1) COc1ccccc1[N+](=O)[O-]
1040 mg/kg/day

###

test system: rodent lifetime carcinogenesis bioassay, tumor incidence TD50; assay: carcinogenic potency in animals, long-term in vivo studies, CPDB compilation (AID 1745844); settings: mouse; strain B6C3F1; females; by gavage; site: Harderian gland; lesion: adenoma, NOS + carcinoma, NOS; dosed 103 weeks; study length 105 weeks
TEST_READOUT: TD50

1. CC(I)C1OCC(CO)O1 (stereo unspecified)
263 mg/kg/day

###

system: rodent lifetime carcinogenesis bioassay, tumor incidence TD50; assay: carcinogenic potency in animals, long-term in vivo studies, CPDB compilation (AID 1745844); details: rat; strain Fischer 344; females; by gavage; site: mammary gland; lesion: adenocarcinoma, NOS; dosed 103 weeks; study length 105 weeks
TEST_READOUT: TD50 (mg/kg/day)

1) CC(Cl)CCl (stereo unspecified)
767

###

system: rodent lifetime carcinogenesis bioassay, tumor incidence TD50; assay: carcinogenic potency in animals, long-term in vivo studies, CPDB compilation (AID 1745844); conditions: hamster; strain Syrian Golden; males; in drinking water; site: lung; lesion: angiosarcoma; dosed 71 weeks; study length 71 weeks
TEST_READOUT: TD50

1) CNNC
0.685 mg/kg/day

###

tested on: rodent lifetime carcinogenesis bioassay, tumor incidence TD50; experiment: carcinogenic potency in animals, long-term in vivo studies, CPDB compilation (AID 1745844); settings: mouse; strain CDF1; females; in feed; site: lung; lesion: several types; types named in the paper; dosed 67 weeks; study length 67 weeks
TEST_READOUT: TD50 (mg/kg/day)

1) Cc1cccn2c1nc1ccc(N)nc12
308

###

test system: rodent lifetime carcinogenesis bioassay, tumor incidence TD50; test: carcinogenic potency in animals, long-term in vivo studies, CPDB compilation (AID 1745844); conditions: rat; strain Fischer 344; males; by gavage; site: thyroid gland; lesion: follicular-cell adenoma + follicular-cell carcinoma; dosed 103 weeks; study length 104 weeks
TEST_READOUT: TD50

1) [Cl][Hg][Cl]
5.25 mg/kg/day
2) O=CCC=O
113 mg/kg/day

###

system: rodent lifetime carcinogenesis bioassay, tumor incidence TD50; assay: carcinogenic potency in animals, long-term in vivo studies, CPDB compilation (AID 1745844); details: mouse; strain B6C3F1; males; in feed; site: skin + subcutaneous tissue; lesion: fibrosarcoma + fibroma; dosed 104 weeks; study length 105 weeks
Activity calls are given as the source filed them. No rule for the calls is given here.
TEST_READOUT: TD50

1) O=[N+]([O-])c1cc(N(CCO)CCO)ccc1NCCO
970 mg/kg/day (inactive)

###

test system: rodent lifetime carcinogenesis bioassay, tumor incidence TD50; experiment: carcinogenic potency in animals, long-term in vivo studies, CPDB compilation (AID 1745844); settings: mouse; strain B6C3F1; males; inhaled; site: any site (literature study); lesion: several types; types named in the paper; dosed 103 weeks; study length 106 weeks
The source made the active and inactive calls. The rule behind the calls is not given here.
TEST_READOUT: TD50

1. O=C(CCl)c1ccccc1
2.69 mg/kg/day (inactive)

###

system: rodent lifetime carcinogenesis bioassay, tumor incidence TD50; assay: carcinogenic potency in animals, long-term in vivo studies, CPDB compilation (AID 1745844); details: rat; strain Fischer 344; males; by gavage; site: Zymbal's gland; lesion: one or several types; types not named; dosed 30 weeks; study length 104 weeks
TEST_READOUT: TD50 (mg/kg/day)

1. CCN(N=O)C(=O)NCC(C)=O
0.499
2. C=CCN(N=O)C(N)=O
0.541

###

tested on: rodent lifetime carcinogenesis bioassay, tumor incidence TD50; test: carcinogenic potency in animals, long-term in vivo studies, CPDB compilation (AID 1745844); conditions: mouse; strain CF-1; males; in feed; site: liver; lesion: liver-cell tumor, type B; dosed 112 weeks; study length 128 weeks
TEST_READOUT: TD50 (mg/kg/day)

1. ClC1=C(Cl)[C@]2(Cl)[C@@H]3[C@@H]4C[C@@H]([C@H]5O[C@@H]45)[C@@H]3[C@@]1(Cl)C2(Cl)Cl
4.66

###

test system: rodent lifetime carcinogenesis bioassay, tumor incidence TD50; test: carcinogenic potency in animals, long-term in vivo studies, CPDB compilation (AID 1745844); conditions: mouse; strain Swiss albino; females; in drinking water; site: muscle; lesion: angiosarcoma; dosed 93 weeks; study length 93 weeks
TEST_READOUT: TD50 (mg/kg/day)

1) NNCCc1ccccc1
21.7

###

test system: rodent lifetime carcinogenesis bioassay, tumor incidence TD50; assay: carcinogenic potency in animals, long-term in vivo studies, CPDB compilation (AID 1745844); settings: rat; strain Fischer 344; males; in feed; site: mammary gland; lesion: fibroadenoma; dosed 104 weeks; study length 104 weeks
The source made the active and inactive calls. No rule for the calls is given here.
TEST_READOUT: TD50

1. Cl
33500 mg/kg/day (inactive)

###

tested on: rodent lifetime carcinogenesis bioassay, tumor incidence TD50; experiment: carcinogenic potency in animals, long-term in vivo studies, CPDB compilation (AID 1745844); conditions: rat; strain Fischer 344; males; by gavage; site: pancreas; lesion: acinar-cell adenoma; dosed 103 weeks; study length 104 weeks
TEST_READOUT: TD50

1. S=c1[nH]c2ccccc2s1
345 mg/kg/day
2. Nc1ccc([N+](=O)[O-])cc1O
111 mg/kg/day

###

system: rodent lifetime carcinogenesis bioassay, tumor incidence TD50; assay: carcinogenic potency in animals, long-term in vivo studies, CPDB compilation (AID 1745844); conditions: rat; strain Fischer 344; females; inhaled; site: nasal cavity; lesion: villous polyp; dosed 52 weeks; study length 130 weeks
TEST_READOUT: TD50

1) NN
6.56 mg/kg/day

###

tested on: rodent lifetime carcinogenesis bioassay, tumor incidence TD50; assay: carcinogenic potency in animals, long-term in vivo studies, CPDB compilation (AID 1745844); settings: mouse; strain B6AKF1; females; oral dosing; site: lung; lesion: adenoma; dosed 73 weeks; study length 73 weeks
TEST_READOUT: TD50 (mg/kg/day)

1. CCOC(N)=O
29.3

###

test system: rodent lifetime carcinogenesis bioassay, tumor incidence TD50; test: carcinogenic potency in animals, long-term in vivo studies, CPDB compilation (AID 1745844); conditions: rat; strain Fischer 344; males; by gavage; site: esophagus; lesion: squamous-cell carcinoma; dosed 30 weeks; study length 65 weeks
TEST_READOUT: TD50 (mg/kg/day)

1) CCCCCCCCCCCN(C)N=O
15.4

###

test system: rodent lifetime carcinogenesis bioassay, tumor incidence TD50; assay: carcinogenic potency in animals, long-term in vivo studies, CPDB compilation (AID 1745844); settings: mouse; strain B6C3F1; females; inhaled; site: Zymbal's gland; lesion: adenoma + carcinoma; dosed 83 weeks; study length 104 weeks
TEST_READOUT: TD50 (mg/kg/day)

1) C=CC=C
3540

###

system: rodent lifetime carcinogenesis bioassay, tumor incidence TD50; test: carcinogenic potency in animals, long-term in vivo studies, CPDB compilation (AID 1745844); conditions: mouse; strain B6C3F1; females; in feed; site: lung; lesion: one or several types; types not named; dosed 94 weeks; study length 94 weeks
TEST_READOUT: TD50 (mg/kg/day)

1) Cn1cnc([N+](=O)[O-])c1Sc1ncnc2nc[nH]c12
4.89

###

test system: rodent lifetime carcinogenesis bioassay, tumor incidence TD50; assay: carcinogenic potency in animals, long-term in vivo studies, CPDB compilation (AID 1745844); settings: rat; strain Osborne-Mendel; females; in feed; site: uterus; lesion: endometrial stromal polyp; dosed 78 weeks; study length 110 weeks
Active and inactive are the calls of the source. How the calls were made is not given here.
TEST_READOUT: TD50

1) O=C(Nc1ccc([N+](=O)[O-])cc1Cl)c1cc(Cl)ccc1O
5060 mg/kg/day (inactive)

###

test system: rodent lifetime carcinogenesis bioassay, tumor incidence TD50; experiment: carcinogenic potency in animals, long-term in vivo studies, CPDB compilation (AID 1745844); details: mouse; strain Swiss albino; males; in drinking water; site: preputial gland; lesion: angiosarcoma; dosed 90 weeks; study length 90 weeks
TEST_READOUT: TD50 (mg/kg/day)

1) CCCCN(N)C=O
519
